We begin with a simple list: items and their reported MIC S. aureus ATCC BAA 2313 (XI).
Tested on: S. aureus ATCC BAA-2313 (MRSA SCCmec type XI)
protocol notes: MIC, broth dilution
Assay type: cell-based, Staphylococcus aureus
experimental setup: Table 5; STIP3 variants, highest concentration 100 μg/mL
Ends that are not written are not given here.

Please review the following examples before continuing.
Summary for this substance, TVAGLVKWILATVKKFA [STIP3-15, TVAGLVKWILATVKKFA] : MIC S. aureus ATCC BAA 2313 (XI) is 50 µg/mL

Lab note: TVKALVKWILKTVAKFA [STIP3-19, TVKALVKWILKTVAKFA] gave MIC S. aureus ATCC BAA 2313 (XI) of 25 µg/mL

GET /value?item= TVKALVKWILKTVAKFW-NH2 [STIP3-31, TVKALVKWILKTVAKFW-NH2] &field=MIC S. aureus ATCC BAA 2313 (XI) returns 25 µg/mL

As a next step, examine the substance that follows.
TVGGLVKWILATVKKFA [STIP3-2, TVGGLVKWILATVKKFA] has a reported MIC S. aureus ATCC BAA 2313 (XI) of 50 µg/mL

* * *

Test system: S. aureus ATCC BAA-42 (MRSA SCCmec type VI)
protocol notes: MIC, broth dilution
Format: cell-based, Staphylococcus aureus
experimental setup: Table 5; STIP3 variants, highest concentration 100 μg/mL
Ends that are not written are not given here.
assay metric: MIC S. aureus ATCC BAA 42 (VI) (µg/mL)
Numbers only here, please. The scale is µg/mL.

The value of MIC S. aureus ATCC BAA 42 (VI) measured for the substance TVGGLVKWILKTVKKFA [STIP3-3, TVGGLVKWILKTVKKFA] turned out to be 50

Please fill in: MIC S. aureus ATCC BAA 42 (VI) reported for TVGGLVKWILKAVKKFA [STIP3-13, TVGGLVKWILKAVKKFA] = 25

Briefly, MIC S. aureus ATCC BAA 42 (VI) measured for TVAGLVKWILATVKKFA [STIP3-15, TVAGLVKWILATVKKFA] : 50

Just so you know, measured MIC S. aureus ATCC BAA 42 (VI) for TVKALVKWILKTVAKFW [STIP3-21, TVKALVKWILKTVAKFW] came out at 25

What the record says about TVKGLVKWILNVVKKFA [STIP3-14, TVKGLVKWILNVVKKFA] : MIC S. aureus ATCC BAA 42 (VI) is 25

Continuing:
Entry TVGGLVKWILDTFKKFA [STIP3-11, TVGGLVKWILDTFKKFA] ; MIC S. aureus ATCC BAA 42 (VI) = 50

get_value(item= TVGGLVKWILDTVKKFA-NH2 [STIP3-27, TVGGLVKWILDTVKKFA-NH2] , readout=MIC S. aureus ATCC BAA 42 (VI)) returns 25

MIC S. aureus ATCC BAA 42 (VI) reading for TVGGLVKWILDTVKKFW [STIP3-6, TVGGLVKWILDTVKKFW] : 12.5

* * *

Tested on: M. luteus ATCC 4698
protocol notes: MIC, broth dilution
Format: cell-based, Micrococcus luteus
experimental setup: Table 4; liquid broth
Ends that are not written are not given here.
assay metric: MIC (μg/mL) M. luteus (µg/mL)
The response must be a number in µg/mL with no trailing unit.

Worked cases, MIC (μg/mL) M. luteus given:
MIC (μg/mL) M. luteus in this record for TVGGLVKWILDTAKKFA [V13A, TVGGLVKWILDTAKKFA] : 50

Form field MIC (μg/mL) M. luteus, entry TAGGLVKWILDTVKKFA [V2A, TAGGLVKWILDTVKKFA] : 50

Noted for TVAGLVKWILDTVKKFA [G3A, TVAGLVKWILDTVKKFA] : its MIC (μg/mL) M. luteus reads 50

Kindly note the recorded MIC (μg/mL) M. luteus for TVGGLVKWILATVKKFA [STIP3-2, TVGGLVKWILATVKKFA] , which is 3.13

Given item TVGGLVKWILDTVKKAA [F16A, TVGGLVKWILDTVKKAA] , the value recorded as its MIC (μg/mL) M. luteus is 200

// TVGGLVAWILDTVKKFA [K7A, TVGGLVAWILDTVKKFA] : MIC (μg/mL) M. luteus value = 200

Per the record, TVGGLVKAILDTVKKFA [W8A, TVGGLVKAILDTVKKFA] has MIC (μg/mL) M. luteus of 100

Looking up TVGGAVKWILDTVKKFA [L5A, TVGGAVKWILDTVKKFA] , I found its MIC (μg/mL) M. luteus recorded as 100

So, TVGGLAKWILDTVKKFA [V6A, TVGGLAKWILDTVKKFA] ? Its MIC (μg/mL) M. luteus was 50

Summary for this sequence, TVGGLVKWIADTVKKFA [L10A, TVGGLVKWIADTVKKFA] : MIC (μg/mL) M. luteus is 200

Further cases:
The recorded MIC (μg/mL) M. luteus for entry TVGGLVKWALDTVKKFA [I9A, TVGGLVKWALDTVKKFA] equals 200

So for TVGGLVKWILDAVKKFA [T12A, TVGGLVKWILDAVKKFA] , the logged MIC (μg/mL) M. luteus turned out to be 12.5
